Biological target: human recombinant EpCAM antigen (extracellular domain, residues 1 to 265, fused with 6×His tag and Avi-tag) (human) (UniProt P16422)
Sequence (P16422 24-265 limits assumed, form in doubt): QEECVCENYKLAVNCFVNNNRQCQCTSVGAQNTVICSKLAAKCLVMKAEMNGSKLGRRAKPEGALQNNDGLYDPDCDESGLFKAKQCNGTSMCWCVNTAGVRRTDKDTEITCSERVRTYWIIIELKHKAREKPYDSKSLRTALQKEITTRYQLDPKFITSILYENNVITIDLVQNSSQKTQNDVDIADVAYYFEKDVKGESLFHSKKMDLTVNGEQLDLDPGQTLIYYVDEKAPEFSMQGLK
Experiment: SPR (Biacore 2000), EpCAM on CM5 chip (about 211 RU), antibody 6.25-100 nM as analyte
Exercise: state measured kon for each of the binders provided.
Numbers only, in M⁻¹ s⁻¹.

Below, 2 binders whose answers are already recorded.
# binder, unitAbbreviation, kon
rows = [
    ("epRas03 (4-27) (antibody, part only; not given: RT22 heavy chain, light constant, V domains shown, not shown: another chain or arm of the molecule; a dimerising Fc or GST, chain 1: disulfide bond Cys5-Cys10 closes the cyclic peptide) VL: RHLWCLGRLCWPMGSSSNDIQMTQSPSSLSASVGDRVTITCKSSQSLLNSRDGKNYLAWYQQKPGKAPKLLIYWASTRESGVPSRFSGSGSGTDFTLTISSLQPEDFATYFCQQYWYWMYTFGQGTKVEIK", "M⁻¹ s⁻¹", 424000),
    ("epRas03 (4-14) (antibody, part only; not given: RT22 heavy chain, light constant, V domains shown, not shown: another chain or arm of the molecule; a dimerising Fc or GST, chain 1: disulfide bond Cys5-Cys10 closes the cyclic peptide) VL: RNLHCIGNLCWPMGSSSNDIQMTQSPSSLSASVGDRVTITCKSSQSLLNSRDGKNYLAWYQQKPGKAPKLLIYWASTRESGVPSRFSGSGSGTDFTLTISSLQPEDFATYFCQQYWYWMYTFGQGTKVEIK", "M⁻¹ s⁻¹", 11200),
]

For each of the binders below, state kon.
1. epRas03 (4-13) (antibody, part only; not given: RT22 heavy chain, light constant, V domains shown, not shown: another chain or arm of the molecule; a dimerising Fc or GST, chain 1: disulfide bond Cys5-Cys10 closes the cyclic peptide) VL: RNLQCIRNICWSMGSSSNDIQMTQSPSSLSASVGDRVTITCKSSQSLLNSRDGKNYLAWYQQKPGKAPKLLIYWASTRESGVPSRFSGSGSGTDFTLTISSLQPEDFATYFCQQYWYWMYTFGQGTKVEIK
2. epRas03 (4-19) (antibody, part only; not given: RT22 heavy chain, light constant, V domains shown, not shown: another chain or arm of the molecule; a dimerising Fc or GST, chain 1: disulfide bond Cys5-Cys10 closes the cyclic peptide) VL: RNLRCIGNICWSMGSSSNDIQMTQSPSSLSASVGDRVTITCKSSQSLLNSRDGKNYLAWYQQKPGKAPKLLIYWASTRESGVPSRFSGSGSGTDFTLTISSLQPEDFATYFCQQYWYWMYTFGQGTKVEIK
3. epRas03 (4-12) (antibody, part only; not given: RT22 heavy chain, light constant, V domains shown, not shown: another chain or arm of the molecule; a dimerising Fc or GST, chain 1: disulfide bond Cys5-Cys10 closes the cyclic peptide) VL: RNLLCLRRICWPMGSSSNDIQMTQSPSSLSASVGDRVTITCKSSQSLLNSRDGKNYLAWYQQKPGKAPKLLIYWASTRESGVPSRFSGSGSGTDFTLTISSLQPEDFATYFCQQYWYWMYTFGQGTKVEIK
4. epRas03 (4-8) (antibody, part only; not given: RT22 heavy chain, light constant, V domains shown, not shown: another chain or arm of the molecule; a dimerising Fc or GST, chain 1: disulfide bond Cys5-Cys10 closes the cyclic peptide) VL: RNLLCIGNLCWPMGSSSNDIQMTQSPSSLSASVGDRVTITCKSSQSLLNSRDGKNYLAWYQQKPGKAPKLLIYWASTRESGVPSRFSGSGSGTDFTLTISSLQPEDFATYFCQQYWYWMYTFGQGTKVEIK

1: 5.69e+06; 2: 5.38e+06; 3: 66400; 4: 737000
